target: UniProt:P09874
Sequence (P09874 whole entry): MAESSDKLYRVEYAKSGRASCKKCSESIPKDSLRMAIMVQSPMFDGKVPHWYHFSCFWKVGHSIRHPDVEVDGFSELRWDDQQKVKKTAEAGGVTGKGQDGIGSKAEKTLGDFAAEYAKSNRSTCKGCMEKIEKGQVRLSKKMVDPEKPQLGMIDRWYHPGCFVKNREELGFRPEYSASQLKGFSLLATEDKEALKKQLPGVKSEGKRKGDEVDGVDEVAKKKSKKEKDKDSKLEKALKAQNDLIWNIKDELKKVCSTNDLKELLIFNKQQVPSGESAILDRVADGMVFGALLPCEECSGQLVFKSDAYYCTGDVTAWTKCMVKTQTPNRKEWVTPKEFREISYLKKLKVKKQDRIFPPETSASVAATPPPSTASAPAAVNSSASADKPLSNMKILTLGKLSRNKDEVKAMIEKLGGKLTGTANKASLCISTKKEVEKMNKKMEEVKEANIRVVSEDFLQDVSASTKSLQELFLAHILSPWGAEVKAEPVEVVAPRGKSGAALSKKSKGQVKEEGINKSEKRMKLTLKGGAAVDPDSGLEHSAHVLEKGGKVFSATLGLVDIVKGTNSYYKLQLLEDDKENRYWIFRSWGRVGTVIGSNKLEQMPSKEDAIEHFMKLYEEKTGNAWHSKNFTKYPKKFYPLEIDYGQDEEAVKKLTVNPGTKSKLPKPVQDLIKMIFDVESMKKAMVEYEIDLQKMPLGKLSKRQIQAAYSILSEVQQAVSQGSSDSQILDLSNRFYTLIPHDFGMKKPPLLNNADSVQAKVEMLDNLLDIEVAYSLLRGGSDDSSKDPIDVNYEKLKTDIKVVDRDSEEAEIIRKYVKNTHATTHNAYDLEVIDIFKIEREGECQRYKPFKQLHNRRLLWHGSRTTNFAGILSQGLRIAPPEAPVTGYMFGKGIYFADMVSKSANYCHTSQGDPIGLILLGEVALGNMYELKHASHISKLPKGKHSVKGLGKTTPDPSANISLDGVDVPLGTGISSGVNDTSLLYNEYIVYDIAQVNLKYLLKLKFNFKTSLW
endpoint.name: IC50 (nM)

smiles.data | tgt | endpoint.name | assay.result
O=C(CCOC[C@@H]1CCN1c1cn[nH]c(=O)c1C(F)(F)F)N1CCN2c3ncc(C(F)(F)F)cc3OC[C@@H]2C1 | UniProt:P09874 | IC50 | 492

====

test: Cmax in fasted ICR mouse at 10 mg/kg, po measured for 24 hrs by LC-MS analysis; type: ADME, organism-based; conditions: in vivo
Decision: Cmax beneath 800 ng/mL gives Yes; Cmax meeting or exceeding 800 ng/mL gives No.

smiles.data | assigned.class
C[C@@H](COCCC(=O)N1CCN2c3ncc(C(F)(F)F)cc3OC[C@@H]2C1)Nc1cn[nH]c(=O)c1C(F)(F)F | Yes
C[C@@H](COCCC(=O)N1CCN(c2ncc(C(F)(F)F)cn2)CC1)Nc1cn[nH]c(=O)c1C(F)(F)F | No
C[C@@H](COCCC(=O)N1CCN2c3ncc(C(F)(F)F)cc3OC[C@@H]2C1)Oc1cn[nH]c(=O)c1C(F)(F)F | No
O=C(CCOC[C@@H]1CCN1c1cn[nH]c(=O)c1C(F)(F)F)N1CCN2c3ncc(Cl)cc3OC[C@@H]2C1 | Yes
O=C(CCOC[C@@H]1CCN1c1cn[nH]c(=O)c1C(F)(F)F)N1CCN2c3ncc(C(F)(F)F)cc3OC[C@@H]2C1 | Yes

====

assay: Passive permeability in MDCKII-MDR1 cells incubated for 2 hrs by LC-MS analysis; assay type: ADME, cell-based, Canis lupus familiaris; conditions: dog, MDCK-MDR1, read-out: permeability

smiles.data | Papp at 2 h
C[C@@H](COCCC(=O)N1CCN(c2ncc(C(F)(F)F)cn2)CC1)Nc1cn[nH]c(=O)c1C(F)(F)F | 1.03 ×10⁻⁶ cm/s
O=C(CCOC[C@@H]1CCN1c1cn[nH]c(=O)c1C(F)(F)F)N1CCN2c3ncc(C(F)(F)F)cc3OC[C@@H]2C1 | 0.852 ×10⁻⁶ cm/s

====

assay: Plasma protein binding in dog at 2 uM incubated for 1 hr by LC/MS analysis; assay type: ADME, cell-free, Canis lupus familiaris; details: read-out: PPB (converted)
# fraction unbound at 1 h, 2 µM listing for each entry below

smiles.data | fraction unbound at 1 h, 2 µM
C[C@@H](COCCC(=O)N1CCN(c2ncc(C(F)(F)F)cn2)CC1)Nc1cn[nH]c(=O)c1C(F)(F)F | 0.131
O=C(CCOC[C@@H]1CCN1c1cn[nH]c(=O)c1C(F)(F)F)N1CCN2c3ncc(C(F)(F)F)cc3OC[C@@H]2C1 | 0.006

====

Recorded IC50 values (Cytochrome P450 1A2 (Homo sapiens, UniProt P05177)) are given below.
endpoint.name: IC50

compound | endpoint.name | assay.result
O=C(CCOC[C@@H]1CCN1c1cn[nH]c(=O)c1C(F)(F)F)N1CCN2c3ncc(C(F)(F)F)cc3OC[C@@H]2C1 | IC50 | > 30 µM
C[C@@H](COCCC(=O)N1CCN(c2ncc(C(F)(F)F)cn2)CC1)Nc1cn[nH]c(=O)c1C(F)(F)F [ATAMPARIB] | IC50 | > 30 µM

====

Molecular target: Protein mono-ADP-ribosyltransferase PARP11 (Homo sapiens)
Sequence (Q9NR21 whole entry): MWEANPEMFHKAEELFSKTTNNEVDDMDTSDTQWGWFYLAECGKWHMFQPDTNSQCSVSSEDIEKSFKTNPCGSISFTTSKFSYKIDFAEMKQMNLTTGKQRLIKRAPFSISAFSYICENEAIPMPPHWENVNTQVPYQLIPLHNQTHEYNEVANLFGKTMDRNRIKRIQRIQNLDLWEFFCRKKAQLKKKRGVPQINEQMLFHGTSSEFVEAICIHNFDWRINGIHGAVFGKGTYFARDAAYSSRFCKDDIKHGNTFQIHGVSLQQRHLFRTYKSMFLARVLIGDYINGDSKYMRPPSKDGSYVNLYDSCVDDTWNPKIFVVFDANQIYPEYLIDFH
endpoint.name: IC50

smiles.data | endpoint.name | assay.result
O=C(CCOC[C@@H]1CCN1c1cn[nH]c(=O)c1C(F)(F)F)N1CCN2c3ncc(C(F)(F)F)cc3OC[C@@H]2C1 | IC50 | > 1 µM

====

test: Apparent permeability across apical to basolateral side in MDCKII-MDR1 cells incubated for 2 hrs by LC-MS analysis; type: ADME, cell-based, Canis lupus familiaris; settings: dog, MDCK-MDR1
Measured Papp A→B at 2 h by item

molecule | measurement.unit | Papp A→B at 2 h
O=C(CCOC[C@@H]1CCN1c1cn[nH]c(=O)c1C(F)(F)F)N1CCN2c3ncc(C(F)(F)F)cc3OC[C@@H]2C1 | ×10⁻⁶ cm/s | 0.202
C[C@@H](COCCC(=O)N1CCN(c2ncc(C(F)(F)F)cn2)CC1)Nc1cn[nH]c(=O)c1C(F)(F)F [ATAMPARIB] | ×10⁻⁶ cm/s | 0.28

====

assay: Kinetic solubility of compound at pH 2; assay type: physicochemical; settings: buffer, read-out: Kinetic_solubility
# solubility kinetic annotations

smiles.data | solubility kinetic (µM)
O=C(CCOC[C@@H]1CCN1c1cn[nH]c(=O)c1C(F)(F)F)N1CCN2c3ncc(C(F)(F)F)cc3OC[C@@H]2C1 | 166
C[C@@H](COCCC(=O)N1CCN(c2ncc(C(F)(F)F)cn2)CC1)Nc1cn[nH]c(=O)c1C(F)(F)F | 158

====

Vd values by entry
test: Volume of distribution at steady state in fasted ICR mouse at 2 mg/kg, iv measured for 24 hrs by LC-MS analysis; assay type: ADME, organism-based; conditions: in vivo, read-out: Vdss

smiles.data | measurement.unit | Vd
O=C(CCOC[C@@H]1CCN1c1cn[nH]c(=O)c1C(F)(F)F)N1CCN2c3ncc(Cl)cc3OC[C@@H]2C1 | L/kg | 0.638
C[C@@H](COCCC(=O)N1CCN2c3ncc(C(F)(F)F)cc3OC[C@@H]2C1)Oc1cn[nH]c(=O)c1C(F)(F)F | L/kg | 0.668
C[C@@H](COCCC(=O)N1CCN2c3ncc(C(F)(F)F)cc3OC[C@@H]2C1)Nc1cn[nH]c(=O)c1C(F)(F)F | L/kg | 0.104
O=C(CCOC[C@@H]1CCN1c1cn[nH]c(=O)c1C(F)(F)F)N1CCN2c3ncc(C(F)(F)F)cc3OC[C@@H]2C1 | L/kg | 1.77
C[C@@H](COCCC(=O)N1CCN(c2ncc(C(F)(F)F)cn2)CC1)Nc1cn[nH]c(=O)c1C(F)(F)F | L/kg | 0.714

====

test: Metabolic stability in mouse liver microsomes assessed as intrinsic clearance preincubated for 5 mins followed by NADPH addition measured for 1 hr by LC-MS analysis; type: ADME, Microsome; conditions: time 65 min, read-out: CLH
Reported values of CLint scaled for individual entries

compound | measurement.unit | CLint scaled
O=C(CCOC[C@@H]1CCN1c1cn[nH]c(=O)c1C(F)(F)F)N1CCN2c3ncc(C(F)(F)F)cc3OC[C@@H]2C1 | mL/min/kg | 141
C[C@@H](COCCC(=O)N1CCN(c2ncc(C(F)(F)F)cn2)CC1)Nc1cn[nH]c(=O)c1C(F)(F)F [ATAMPARIB] | mL/min/kg | 345

====

Below is a list of entries, each paired with its recorded IC50 value.
target: UniProt:P11712
Sequence (P11712 whole entry): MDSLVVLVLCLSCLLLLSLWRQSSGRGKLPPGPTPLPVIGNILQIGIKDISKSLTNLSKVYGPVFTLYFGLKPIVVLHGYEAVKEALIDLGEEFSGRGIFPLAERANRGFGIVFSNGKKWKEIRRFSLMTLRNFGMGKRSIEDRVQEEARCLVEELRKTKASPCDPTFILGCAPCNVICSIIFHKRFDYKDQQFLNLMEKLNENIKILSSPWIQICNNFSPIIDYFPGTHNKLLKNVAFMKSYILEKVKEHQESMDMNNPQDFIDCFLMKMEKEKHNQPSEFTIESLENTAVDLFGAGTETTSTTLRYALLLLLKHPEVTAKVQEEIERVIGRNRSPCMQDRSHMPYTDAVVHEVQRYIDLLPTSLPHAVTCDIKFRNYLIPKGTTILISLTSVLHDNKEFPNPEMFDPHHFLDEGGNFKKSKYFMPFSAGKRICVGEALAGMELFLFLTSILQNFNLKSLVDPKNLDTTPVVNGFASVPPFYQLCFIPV

smiles.data | IC50 [nM]
C[C@@H](COCCC(=O)N1CCN(c2ncc(C(F)(F)F)cn2)CC1)Nc1cn[nH]c(=O)c1C(F)(F)F | 3130
O=C(CCOC[C@@H]1CCN1c1cn[nH]c(=O)c1C(F)(F)F)N1CCN2c3ncc(C(F)(F)F)cc3OC[C@@H]2C1 | 2010
